Target: T1, his-tagged human CDH6 extracellular region protein (hCDH6 ECD-his) (human, UniProt P55285 19-615)
T1 construct: also called Human CDH6-his; hCDH6-his; not shown: his tag
T1 sequence: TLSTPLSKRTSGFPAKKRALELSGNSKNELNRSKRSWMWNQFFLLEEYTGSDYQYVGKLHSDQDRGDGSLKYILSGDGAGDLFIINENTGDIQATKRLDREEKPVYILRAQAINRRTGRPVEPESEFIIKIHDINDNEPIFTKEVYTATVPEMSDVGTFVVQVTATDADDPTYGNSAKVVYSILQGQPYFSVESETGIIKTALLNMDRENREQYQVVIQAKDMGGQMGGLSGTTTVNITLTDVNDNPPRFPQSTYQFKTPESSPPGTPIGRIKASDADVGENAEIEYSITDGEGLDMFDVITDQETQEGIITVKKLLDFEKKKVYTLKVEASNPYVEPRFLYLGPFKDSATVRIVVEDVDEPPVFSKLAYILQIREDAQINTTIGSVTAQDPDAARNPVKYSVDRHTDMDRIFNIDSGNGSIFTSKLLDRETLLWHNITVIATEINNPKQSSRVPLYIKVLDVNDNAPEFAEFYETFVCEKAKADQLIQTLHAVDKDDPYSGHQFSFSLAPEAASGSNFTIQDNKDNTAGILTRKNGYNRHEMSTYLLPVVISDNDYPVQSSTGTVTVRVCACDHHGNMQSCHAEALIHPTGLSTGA
Test: ELISA, coated antigen
value_type: EC50
State the value with its unit after it.

(Q) For hCDH6-1-H3L3 (antibody, V domains shown, Humanized) VH: EVQLVQSGAEVKKPGSSVKVSCKASGYTFTNYWMHWVRQAPGQGLEWMGDIDPSHSETHYTQKFKDRVTLTVDKSTSTAYMELSSLRSEDTAVYYCARGDLGRFDYWGQGTTVTVSS VL: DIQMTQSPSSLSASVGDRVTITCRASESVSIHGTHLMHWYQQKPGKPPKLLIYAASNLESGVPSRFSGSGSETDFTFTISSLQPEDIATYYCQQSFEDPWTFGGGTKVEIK , what is its reported EC50?
(A) 0.03 nM

(Q) For hCDH6-14-H2L2 (antibody, V domains shown, Humanized) VH: EIQLVQSGAEVKKPGASVKVSCKASGYTFTDNYINWVRQAPGQRLEWMGWIYPGTGNSYYNEKFKGRVTITVDTSASTAYMELSSLRSEDTAVYYCASSYGDSFDYWGQGTTVTVSS VL: DIQMTQSPSSLSASVGDRVTITCRASQDIRNYLNWYQQKPGGAPKLLISYTSRLHSGVPSRFSGSGSGTDFTFTISSLQPEDIATYYCQQYSQLPWTFGGGTKVEIK , what is its reported EC50?
(A) 0.098 nM

(Q) For hCDH6-14-H4L2 (antibody, V domains shown, Humanized) VH: EVQLVQSGAEVKKPGASVKVSCKASGYTFTDNYINWVRQAPGQGLEWMGWIYPGTGNSYYNEKFKGRVTITVDTSASTAYMELSSLRSEDTAVYYCASSYGDSFDYWGQGTTVTVSS VL: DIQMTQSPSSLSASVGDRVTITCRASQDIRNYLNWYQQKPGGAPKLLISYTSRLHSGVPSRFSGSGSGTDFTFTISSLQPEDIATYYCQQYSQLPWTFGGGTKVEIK , what is its reported EC50?
(A) 0.089 nM

Reference source for all entries: patent US20260234242A1
